Value source: ChEMBL document CHEMBL1275524

Parameter MFC: see the listing below.
Tested on: Mucor
protocolSummary: Antifungal activity against Mucor species
Type: functional

Sample records with MFC:
* CCC(C)n1ncn(-c2ccc(N3CCN(c4ccc(OCC5COC(Cn6cncn6)(c6ccc(Cl)cc6Cl)O5)cc4)CC3)cc2)c1=O (stereo not drawn) [ITRACONAZOLE] | > 4 mg/L
* C[C@@H](c1ncncc1F)[C@](O)(Cn1cncn1)c1ccc(F)cc1F [VORICONAZOLE] | > 8 mg/L

Here is another compound to look at.
Recorded MFC (compound CC[C@H](C)C[C@H](C)CCCCCCCCC(=O)N[C@H]1C[C@@H](O)[C@@H](NCCN)NC(=O)[C@@H]2[C@@H](O)CCN2C(=O)[C@H]([C@H](O)CCN)NC(=O)[C@H]([C@H](O)[C@@H](O)c2ccc(O)cc2)NC(=O)[C@@H]2C[C@@H](O)CN2C(=O)[C@H]([C@@H](C)O)NC1=O [CASPOFUNGIN] ): > 8 mg/L
